Experiment: in vitro
Settings: human, pbmcs or whole blood
property measured: viability at 0.01 µM
Give the figure together with its unit, number first.

>>> df
                                   molecule  result
0  CC1C(=O)OC2C1CCC1(C)C(=O)CCC(C)(O)C21 (centres unmarked) [2,3-dihydrovulgarine]    110%

Query molecule follows.
Read off the recorded viability at 0.01 µM for CC1C(=O)OC2C1CCC1(C)C(=O)C=CC(C)(O)C21 (centres unmarked) [Vulgarine, vulgarine]
112%

====

Experiment: in vitro
Conditions: human, pbmcs or whole blood
property measured: viability at 10 µM (%)
Give bare numbers, in %.

                                   compound   property_measured  number
0  CC1C(=O)OC2C1CCC1(C)C(=O)C=CC(C)(O)C21 (centres unmarked)  viability at 10 µM     104

In one line, give reported viability at 10 µM of the entry CC1C(=O)OC2C1CCC1(C)C(=O)CCC(C)(O)C21 (centres unmarked) [2,3-dihydrovulgarine] .
108
